Target: Hypoxia-inducible factor 1-alpha (Homo sapiens) (UniProt Q16665)
Sequence (Q16665 whole entry, looked up): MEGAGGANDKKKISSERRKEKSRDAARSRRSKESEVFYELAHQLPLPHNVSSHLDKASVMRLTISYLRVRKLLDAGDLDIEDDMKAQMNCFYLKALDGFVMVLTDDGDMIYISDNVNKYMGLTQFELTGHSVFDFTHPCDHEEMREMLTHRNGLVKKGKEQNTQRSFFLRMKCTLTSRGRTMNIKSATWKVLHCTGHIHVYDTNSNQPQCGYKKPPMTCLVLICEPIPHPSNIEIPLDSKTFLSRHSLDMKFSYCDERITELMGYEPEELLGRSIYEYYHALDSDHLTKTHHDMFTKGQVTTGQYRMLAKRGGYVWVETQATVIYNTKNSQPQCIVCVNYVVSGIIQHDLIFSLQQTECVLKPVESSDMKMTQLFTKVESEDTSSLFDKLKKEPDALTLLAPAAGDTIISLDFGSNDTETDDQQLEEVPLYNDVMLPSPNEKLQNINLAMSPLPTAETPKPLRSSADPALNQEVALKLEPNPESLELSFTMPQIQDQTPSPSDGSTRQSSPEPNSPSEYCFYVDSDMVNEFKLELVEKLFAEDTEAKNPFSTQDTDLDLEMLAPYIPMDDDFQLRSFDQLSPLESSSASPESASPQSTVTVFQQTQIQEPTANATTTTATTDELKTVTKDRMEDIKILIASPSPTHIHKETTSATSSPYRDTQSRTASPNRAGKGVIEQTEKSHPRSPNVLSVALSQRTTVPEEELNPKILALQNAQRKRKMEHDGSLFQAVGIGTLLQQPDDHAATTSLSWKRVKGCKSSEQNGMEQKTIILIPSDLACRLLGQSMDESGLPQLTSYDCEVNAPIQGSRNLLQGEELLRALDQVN
Experiment: activators of HIF1alpha nuclear accumulation, confirmation, imaging, fluorescence, U2OS GFP-HIF1alpha (AID 434951)
Conditions: U2OS GFP-HIF1alpha nuclear intensity, high-content imaging
The source made the active and inactive calls.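 How the source made its calls: active means a fitted half-maximal concentration EC50 for the rise in nuclear signal no higher than ten times the top dose tested; inconclusive means flat fit with activity between 30% and 70%, or unusable fit; inactive means EC50 beyond ten times the top dose.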
Just give me one of these, please: yes = active, no = inactive

Example entries begin here.
| COMPOUND | CATEGORY LABEL |
| --- | --- |
| COc1cnc(-c2ccccn2)nc1N(C)c1ccccc1 | yes |
| COc1cccc2sc(N3CCN(C(=O)c4ccc([N+](=O)[O-])o4)CC3)nc12 | no |
| Nc1nc2nc(-c3cccs3)cc(C(F)(F)F)n2n1 | no |

Test call, this compound: "CCOc1ccccc1NC(=O)CSc1ncnc2c1oc1ccccc12"
no

Call for entry "Cc1ccc(C)c(OCC(=O)N2CCN(Cc3ccc4c(c3)OCO4)CC2)c1" :
no

Call for entry "COc1ccc(/C(C)=N/NC(=O)c2cccc(S(=O)(=O)N3CCCC3)c2)c(O)c1" :
yes

What is the recorded call for this compound in the test? "N#CC(=C=[N-])c1nc2ccccc2nc1-[n+]1cccc(NC(=O)c2ccc(F)cc2)c1"
no

Fill in: this test's call for Cc1cccc2[nH]c(CN(C)C(=O)C3CCC(=O)N(C4CC4)C3)nc12 (stereo not drawn) is ___
no

What did the test return for COc1ccc(C(NC(=O)c2cccnc2)c2cc(Cl)c3cccnc3c2O)cc1OC (stereo not drawn) ?
yes

# lookup: test call for "Cc1ccc(-c2nnc(Sc3nc4ccccc4o3)c3ccccc23)cc1"
yes

Dear all, I need the recorded test outcome for "Cn1nc(C(F)(F)F)cc1C(=O)NC1CCCCCC1" , thank you.
no
